System: Escherichia coli
Assay: Antibacterial activity against Escherichia coli ATCC 8739 at 300 ug/ml after 24 hrs by agar well diffusion method
Assay type: functional
Conditions: ATCC 8739, 24 h, read-out: DIZ
Parameter zone of inhibition at 300 µg/mL: see the listing below.
Your answer should be a plain number; it is taken to be in mm.

Past entries and their recorded results:
[
  {
    "chemical smiles": "CCn1cc(C=C2C(=O)OC(C)(C)OC2=O)c2cc(Br)ccc21",
    "zone of inhibition at 300 µg/mL (mm)": 17
  },
  {
    "chemical smiles": "Cn1cc(C=C2C(=O)OC(C)(C)OC2=O)c2cc([N+](=O)[O-])ccc21",
    "zone of inhibition at 300 µg/mL (mm)": 20
  },
  {
    "chemical smiles": "CCn1cc(C=C2C(=O)OC(C)(C)OC2=O)c2cc([N+](=O)[O-])ccc21",
    "zone of inhibition at 300 µg/mL (mm)": 20
  },
  {
    "chemical smiles": "CCn1cc(C=C2C(=O)OC(C)(C)OC2=O)c2ccccc21",
    "zone of inhibition at 300 µg/mL (mm)": 20
  },
  {
    "chemical smiles": "CCn1cc(C=C2C(=O)OC(C)(C)OC2=O)c2cc(OC)ccc21",
    "zone of inhibition at 300 µg/mL (mm)": 16
  }
]

Fill in reported zone of inhibition at 300 µg/mL for this entry: CC1(C)OC(=O)C(=Cc2c[nH]c3ccccc23)C(=O)O1 22

Return zone of inhibition at 300 µg/mL (reported value) for this molecule: Cn1cc(C=C2C(=O)OC(C)(C)OC2=O)c2ccccc21 20

For the molecule COc1ccc2c(c1)c(C=C1C(=O)OC(C)(C)OC1=O)cn2C , give its measured zone of inhibition at 300 µg/mL value. 20
